Biological target: purified recombinant human GAC (GLS1) (Homo sapiens, UniProt O94925)
Sequence (O94925 55-598 isoform O94925-3 limits assumed): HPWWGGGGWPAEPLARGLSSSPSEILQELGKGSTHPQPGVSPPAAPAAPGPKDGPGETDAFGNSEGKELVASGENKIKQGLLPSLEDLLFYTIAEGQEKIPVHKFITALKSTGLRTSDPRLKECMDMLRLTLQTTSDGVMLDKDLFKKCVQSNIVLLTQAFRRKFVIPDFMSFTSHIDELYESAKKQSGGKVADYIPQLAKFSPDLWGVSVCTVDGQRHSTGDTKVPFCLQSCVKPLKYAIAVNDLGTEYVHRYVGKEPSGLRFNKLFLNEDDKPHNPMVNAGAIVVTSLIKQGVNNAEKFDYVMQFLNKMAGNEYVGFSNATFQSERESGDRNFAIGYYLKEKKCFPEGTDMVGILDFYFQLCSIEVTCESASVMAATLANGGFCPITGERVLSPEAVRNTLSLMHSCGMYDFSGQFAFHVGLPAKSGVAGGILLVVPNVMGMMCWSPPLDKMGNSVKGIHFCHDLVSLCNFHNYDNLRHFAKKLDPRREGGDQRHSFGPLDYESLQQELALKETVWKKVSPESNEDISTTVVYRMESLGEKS
Experiment: GLS1 Enzymatic Activity Assay (dual-coupled enzymatic assay)
Method: GLS1 Enzymatic Activity Assay The inhibition of purified recombinant human GAC by varying concentrations of inhibitors is assessed via a dual-coupled enzymatic assay. […] The production of resorufin was monitored on a Perkin Elmer Envision plate reader (excitation 530 nm, emission 590 nm) either in a kinetics or endpoint mode (at 20 minutes). IC50 values were calculated using a four-parameter logistic curve fit.
property-name: IC50

{"columns": ["molecule", "IC50"],
 "data": [
  ["O=C(NCc1ccccn1)c1cn(CCCCc2cc3cc(CC4CCCCC4)[nH]c3nn2)nn1", "< 100 nM"],
  ["O=C(NCc1cccc(OC(F)(F)F)c1)c1cn(CCCCc2cc3cc[nH]c3nn2)nn1", "100 to 500 nM"],
  ["CC(C)(C)OC(=O)NCc1cccc(CC(=O)Nc2nnc(CCCCc3cc4cc(Cc5ccccc5)[nH]c4nn3)s2)c1", "< 100 nM"]
]}

Record IC50 for all entries; do not skip any.
1. Cc1ccc(CNC(=O)c2cn(CCCCc3cc4cc(-c5ccc(OC(F)(F)F)cc5)[nH]c4nn3)nn2)cn1
2. O=C(Cc1ccccn1)Nc1nnc(CCCCc2cc3cc[nH]c3nn2)s1
3. O=C(NCc1cc(OC(F)(F)F)ccc1F)c1cn(CCCCc2cc3cc(C4CCNCC4)[nH]c3nn2)nn1
4. NCc1cccc(CC(=O)Nc2nnc(CCCCc3cc4cc(Cc5ccccc5)[nH]c4nn3)s2)c1
5. CC(C)S(=O)(=O)N1CC(c2cc3cc(CCCCn4cc(C(=O)NCc5cc(OC(F)(F)F)ccc5F)nn4)nnc3[nH]2)C1
6. Nc1nnc(CCCCc2cnc3[nH]c(Cc4ccccc4)nc3c2)s1

["< 100 nM", "500 to 5000 nM", "100 to 500 nM", "< 100 nM", "< 100 nM", "500 to 5000 nM"]

Below is a list of compounds. For each, state its recorded IC50.
1. O=C(NCc1cc(OC(F)(F)F)ccc1F)c1cn(CCCCc2cc3cc(C4CN(C(=O)C5CC5)C4)[nH]c3nn2)nn1
2. Cc1ccc(CNC(=O)c2cn(CCCCc3cc4cc(C5CC5)[nH]c4nn3)nn2)cn1
3. O=C(NCc1cccc(OC(F)(F)F)c1)c1cn(CCCCc2cc3c(-c4ccccn4)c(-c4ccccc4F)[nH]c3nn2)nn1
4. O=C(NCc1ccccn1)c1nnc(CCCCc2cc3cc(Cc4ccccc4)[nH]c3nn2)s1
5. CC(=O)Nc1cccc(-c2c(C3CC3)[nH]c3nnc(CCCCn4cc(C(=O)NCc5ccc(C(C)(C)O)nc5)nn4)cc23)c1
6. O=C(NCc1ccccn1)c1cn(CCCCc2cc3c(Cc4ccccn4)c(C4CC4)[nH]c3nn2)nn1

1: < 100 nM; 2: < 100 nM; 3: < 100 nM; 4: < 100 nM; 5: < 100 nM; 6: 100 to 500 nM

Please state, for each entry, its recorded IC50.
1. CC(C)(F)C(=O)N1CC(c2cc3cc(CCCCn4cc(C(=O)NCc5cc(OC(F)(F)F)ccc5F)nn4)nnc3[nH]2)C1
2. O=C(Cc1ccccc1)Nc1nnc(CCCCc2cnc3[nH]ccc3c2)s1
3. CC(C)(O)c1ccc(CNC(=O)c2cn(CCCCc3cc4c(C5CC5)c(-c5ccccc5F)[nH]c4nn3)nn2)cn1

1. < 100 nM
2. 100 to 500 nM
3. < 100 nM
